Where do the numbers come from? From patent US20030044399A1.

Endpoint: pKi. System: Schisto B 2 (Schistosoma mansoni). Items follow.
Sequence (Q95PM1 entry or part of it): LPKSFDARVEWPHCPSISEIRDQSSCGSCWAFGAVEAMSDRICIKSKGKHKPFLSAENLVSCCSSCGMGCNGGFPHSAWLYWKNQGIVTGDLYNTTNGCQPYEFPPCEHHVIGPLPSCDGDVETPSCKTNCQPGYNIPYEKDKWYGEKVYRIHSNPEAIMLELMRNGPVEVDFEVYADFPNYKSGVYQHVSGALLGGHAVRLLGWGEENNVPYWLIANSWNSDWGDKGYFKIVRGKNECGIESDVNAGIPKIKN
Lab note — pKi values are minus log10 of concentrations in M.

| molecule | measuredOn | pKi |
| --- | --- | --- |
| COc1ccc2oc(C(=O)N[C@@H](CC(C)C)C(=O)N[C@H]3CCCN(S(=O)(=O)c4cccs4)CC3=O)cc2c1 | Schisto B 2 (Schistosoma mansoni) | 6.96 |

**Query** # pKi lookup, item `COc1ccc(C(=O)N[C@@H](CC(C)C)C(=O)N[C@@H]2CCCN(S(=O)(=O)c3ccc(F)cc3)CC2=O)cc1OC`
**Result** 6.55

**Query** Same read-out for CC(C)CC(NC(=O)c1cc2ccccc2o1)C(=O)NC1CC[C@@H](C)N(S(=O)(=O)c2ccccn2)CC1=O (single isomer, unassigned) ?
**Result** 7.35

**Query** Repeat for the following molecule: `CC(C)C[C@H](NC(=O)c1cc2ccccc2s1)C(=O)N[C@H]1CCCN(S(=O)(=O)c2ccc(Cl)cc2)CC1=O`
**Result** 6.57

**Query** Moving on to the next molecule: `CC(C)C[C@H](NC(=O)c1cc2ccccc2o1)C(=O)N[C@H]1CCCN(S(=O)(=O)c2cccc(Cl)c2)CC1=O`
**Result** 6.85

**Query** How about COc1cc2cc(C(=O)N[C@H](CC3CCCCC3)C(=O)NC3CCCN(S(=O)(=O)c4cccc[n+]4[O-])CC3=O)oc2cc1OC (some centres unmarked) ?
**Result** 7.09

**Query** Here is the next molecule: O=C(N[C@@H](Cc1ccccc1)C(=O)NC1CCCN(S(=O)(=O)c2ccccn2)CC1=O)c1cc2ccccc2o1 (some centres unmarked)
**Result** 6.57

**Query** Next molecule: `COc1ccc2oc(C(=O)N[C@@H](CC(C)C)C(=O)N[C@H]3CCCN(S(=O)(=O)c4ccc(F)cc4)CC3=O)cc2c1`
**Result** 6.89

**Query** Same for `COc1cccc(S(=O)(=O)N2CCC[C@H](NC(=O)[C@H](CC(C)C)NC(=O)c3cc4ccccc4n3C)C(=O)C2)c1`
**Result** 6.40

**Query** Input `CC(C)C[C@H](NC(=O)c1cc2ccccc2s1)C(=O)N[C@@H]1CCCN(S(=O)(=O)c2ccc(F)cc2)CC1=O`
**Result** 6.96

**Query** For O=C(NC(Cc1ccccc1)C(=O)N[C@@H]1CCCN(S(=O)(=O)c2ccccn2)CC1=O)c1cccc2ccccc12 (single isomer, unassigned) then?
**Result** 7.17

**Query** Next molecule up: CC(C)C[C@@H](NC(=O)c1cc2cc(OCCN3CCOCC3)ccc2o1)C(=O)NC1CCCN(C(=O)Cc2cccc(-c3ccccn3)c2)CC1=O (single isomer, unassigned)
**Result** 6.49

**Query** Also check `CC(C)C[C@H](NC(=O)c1cnc2ccccc2n1)C(=O)N[C@H]1CCCN(S(=O)(=O)c2ccc(F)cc2)CC1=O`
**Result** 6.59

**Query** Now this one: `COc1cccc(S(=O)(=O)N2CCC[C@H](NC(=O)[C@H](CC(C)C)NC(=O)c3cc4ccccc4s3)C(=O)C2)c1`
**Result** 6.55

====

- measuredOn: Schisto B 1 (Schistosoma mansoni, UniProt P25792)
- Sequence (P25792 89-340): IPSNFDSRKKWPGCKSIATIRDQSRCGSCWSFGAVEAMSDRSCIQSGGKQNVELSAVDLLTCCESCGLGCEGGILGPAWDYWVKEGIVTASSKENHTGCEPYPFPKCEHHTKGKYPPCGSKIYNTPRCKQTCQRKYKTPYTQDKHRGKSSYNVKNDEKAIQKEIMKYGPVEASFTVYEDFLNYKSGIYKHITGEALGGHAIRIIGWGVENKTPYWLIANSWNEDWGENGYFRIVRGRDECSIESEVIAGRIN
- assayText: Cysteine protease inhibition, progress curve method, schistosoma B 1
- Type: biochemical
- recordedConditions: 10 uM Cbz-Phe-Arg-AMC, 100 mM Na acetate pH 5.5, 5 mM cysteine; read-out: Schisto B 1 Ki
Hi! Just check whether Ki is below 50 nM. Below gives Fulfilled, equal or above gives Not fulfilled.

| compound | assignedLabel |
| --- | --- |
| Cc1occc1S(=O)(=O)N1CCC[C@H](NC(=O)[C@H](CC(C)C)NC(=O)c2cc3ccccc3o2)C(=O)C1 | Fulfilled |
| CC(C)C[C@H](NC(=O)c1cnc2ccccc2n1)C(=O)N[C@H]1CCCN(S(=O)(=O)c2ccc(F)cc2)CC1=O | Fulfilled |
| COc1cccc(S(=O)(=O)N2CCC[C@H](NC(=O)[C@H](CC(C)C)NC(=O)c3cc4cc(OC)ccc4o3)C(=O)C2)c1 | Not fulfilled |
| COc1ccc2oc(C(=O)N[C@@H](CC(C)C)C(=O)N[C@H]3CCCN(S(=O)(=O)c4ccc(F)cc4)CC3=O)cc2c1 | Fulfilled |
| CC(C)C[C@@H](NC(=O)c1ccc2c(c1)OCO2)C(=O)N[C@@H]1CCCN(S(=O)(=O)c2ccc(F)cc2)CC1=O (stereo in doubt) | Fulfilled |
| COc1ccc2oc(C(=O)N[C@@H](CC(C)C)C(=O)N[C@H]3CCCN(S(=O)(=O)c4cccc(Cl)c4)CC3=O)cc2c1 | Fulfilled |
| O=C(N[C@@H](Cc1ccc2ccccc2c1)C(=O)NC1CCCN(S(=O)(=O)c2ccccn2)CC1=O)c1cccc2cccnc12 (some centres unmarked) | Fulfilled |
| O=C(N[C@@H](Cc1ccc2ccccc2c1)C(=O)NC1CCCN(S(=O)(=O)c2ccccn2)CC1=O)c1cccc2ccccc12 (single isomer, unassigned) [Example 188] | Fulfilled |
| CC(C)C[C@H](NC(=O)c1cc2ccccc2s1)C(=O)N[C@@H]1CCCN(S(=O)(=O)c2ccc(F)cc2)CC1=O | Fulfilled |
| O=C(N[C@@H](Cc1ccc2ccccc2c1)C(=O)NC1CCCN(S(=O)(=O)c2ccccn2)CC1=O)c1cccc2ccccc12 (some centres unmarked) [Example 175] | Fulfilled |

**Query** Is Ki strictly under 50 nM for the entry `COc1ccc2oc(C(=O)N[C@@H](CC(C)C)C(=O)N[C@H]3CCCN(S(=O)(=O)c4ccc(Cl)cc4)CC3=O)cc2c1` ?
**Result** Not fulfilled

**Query** Note, next up: `CC(C)C[C@H](NC(=O)c1ccc2ccccc2n1)C(=O)N[C@H]1CCCN(S(=O)(=O)c2ccc(F)cc2)CC1=O`
**Result** Not fulfilled

**Query** Would you mind doing `CC(C)C[C@H](NC(=O)c1cc2ccccc2o1)C(=O)N[C@H]1CCCN(S(=O)(=O)c2cccc(Cl)c2)CC1=O` as well?
**Result** Not fulfilled
